In this section, each of the binders is paired with its reported Effective SDA Concentration at A450 0.15.
# target entity: tetanus neurotoxin (TeNT), authentic tetanus holotoxin (Clostridium tetani, UniProt P04958 2-1315)
# Sequence (P04958 2-457 limits assumed, chain 1 of 2): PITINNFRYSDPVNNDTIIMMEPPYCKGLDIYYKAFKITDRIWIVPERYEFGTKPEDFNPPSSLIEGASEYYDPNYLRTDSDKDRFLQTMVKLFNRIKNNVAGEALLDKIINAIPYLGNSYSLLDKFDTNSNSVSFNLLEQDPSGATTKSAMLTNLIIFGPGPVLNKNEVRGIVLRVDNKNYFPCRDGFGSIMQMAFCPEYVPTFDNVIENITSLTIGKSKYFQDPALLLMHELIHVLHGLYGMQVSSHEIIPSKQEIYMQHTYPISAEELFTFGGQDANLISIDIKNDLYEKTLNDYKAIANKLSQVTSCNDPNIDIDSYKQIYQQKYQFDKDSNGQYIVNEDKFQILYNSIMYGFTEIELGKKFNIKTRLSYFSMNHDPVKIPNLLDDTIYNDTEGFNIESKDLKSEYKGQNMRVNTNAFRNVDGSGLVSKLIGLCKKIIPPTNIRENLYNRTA
# Sequence (P04958 458-1315 limits assumed, chain 2 of 2): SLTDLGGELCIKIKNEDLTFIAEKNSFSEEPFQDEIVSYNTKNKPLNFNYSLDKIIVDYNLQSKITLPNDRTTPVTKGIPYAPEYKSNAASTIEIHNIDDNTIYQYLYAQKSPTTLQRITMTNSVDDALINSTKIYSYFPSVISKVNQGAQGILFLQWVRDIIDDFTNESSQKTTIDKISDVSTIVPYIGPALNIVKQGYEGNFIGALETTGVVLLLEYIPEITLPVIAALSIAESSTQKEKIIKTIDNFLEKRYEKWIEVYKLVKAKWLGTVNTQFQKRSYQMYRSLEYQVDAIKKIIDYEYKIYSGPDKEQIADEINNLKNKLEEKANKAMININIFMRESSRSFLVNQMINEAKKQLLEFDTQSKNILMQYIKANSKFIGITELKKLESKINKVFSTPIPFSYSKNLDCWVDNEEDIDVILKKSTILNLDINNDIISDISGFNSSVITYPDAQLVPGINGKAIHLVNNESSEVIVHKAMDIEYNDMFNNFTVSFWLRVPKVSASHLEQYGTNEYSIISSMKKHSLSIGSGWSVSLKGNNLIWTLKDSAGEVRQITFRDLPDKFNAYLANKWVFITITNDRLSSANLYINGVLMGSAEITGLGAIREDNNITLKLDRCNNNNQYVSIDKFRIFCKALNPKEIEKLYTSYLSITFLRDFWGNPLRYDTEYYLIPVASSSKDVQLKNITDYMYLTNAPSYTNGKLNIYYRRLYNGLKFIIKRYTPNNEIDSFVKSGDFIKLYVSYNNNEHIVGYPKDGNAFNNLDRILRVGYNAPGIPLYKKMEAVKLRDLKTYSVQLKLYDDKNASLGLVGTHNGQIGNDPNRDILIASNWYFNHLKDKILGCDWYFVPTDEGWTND
# experiment: ELISA: directly coated TeNT, anti-his6 PO
Express it in ng/mL; write the number only.

Reference set (2 entries):
binder | Effective SDA Concentration at A450 0.15 / ng/mL
SVT15L-3FW4M (VHH) VHH: QVQLQESGGGLVQTGGSLRLSCRASGRAFANYHFGWFRQAPGKDREFVASISWKGGSTYYANFALGRFTSSVDRAESSVYLQMSGLTPEDTATYYCAAHDGGDWNYHTGMDYWGQGTQVTVSS | 26
SVT15-3FW4M-GS2-SVG06M4-H6 (bispecific antibody) QVQLQESGGGLVQTGGSLRLSCRASGRAFANYHFGWFRQAPGKDREFVASISWKGGSTYYANFALGRFTSSVDRAESSVYLQMSGLTPEDTATYYCAAHDGGDWNYHTGMDYWGQGTQVTVSSGGGGSGGGSEVQLVESGGALVQPGGSLRLSCAASGFPFSAYDMTWVRQAPGQGLEWVSTIHKSGGITTYADSVKGRFTISRDNAKNTLYLQMNNLESEDTAVYYCAKALRAHNSDYVGRNALGSWGQGTQVTVSSHHHHHH | 37

q: Recorded Effective SDA Concentration at A450 0.15 for SVT15-3FW4M-GS2-SVA12M2-H6 (bispecific antibody) QVQLQESGGGLVQTGGSLRLSCRASGRAFANYHFGWFRQAPGKDREFVASISWKGGSTYYANFALGRFTSSVDRAESSVYLQMSGLTPEDTATYYCAAHDGGDWNYHTGMDYWGQGTQVTVSSGGGGSGGGSEVQLVESGGGLVQAGGSLRLSCAASGRTFSYYPMAWFRQAPGQEREFVAAIIGADTTYYADSLKGRFTISRDNAKNMVYLQMNSLKPEDTAVYYCAARNTYWSDVYYREGQYTNWGQGTQVTVSSHHHHHH , please?
a: 8
